target.or.system: DNA topoisomerase 1 (Homo sapiens) (UniProt P11387)
Sequence (whole entry): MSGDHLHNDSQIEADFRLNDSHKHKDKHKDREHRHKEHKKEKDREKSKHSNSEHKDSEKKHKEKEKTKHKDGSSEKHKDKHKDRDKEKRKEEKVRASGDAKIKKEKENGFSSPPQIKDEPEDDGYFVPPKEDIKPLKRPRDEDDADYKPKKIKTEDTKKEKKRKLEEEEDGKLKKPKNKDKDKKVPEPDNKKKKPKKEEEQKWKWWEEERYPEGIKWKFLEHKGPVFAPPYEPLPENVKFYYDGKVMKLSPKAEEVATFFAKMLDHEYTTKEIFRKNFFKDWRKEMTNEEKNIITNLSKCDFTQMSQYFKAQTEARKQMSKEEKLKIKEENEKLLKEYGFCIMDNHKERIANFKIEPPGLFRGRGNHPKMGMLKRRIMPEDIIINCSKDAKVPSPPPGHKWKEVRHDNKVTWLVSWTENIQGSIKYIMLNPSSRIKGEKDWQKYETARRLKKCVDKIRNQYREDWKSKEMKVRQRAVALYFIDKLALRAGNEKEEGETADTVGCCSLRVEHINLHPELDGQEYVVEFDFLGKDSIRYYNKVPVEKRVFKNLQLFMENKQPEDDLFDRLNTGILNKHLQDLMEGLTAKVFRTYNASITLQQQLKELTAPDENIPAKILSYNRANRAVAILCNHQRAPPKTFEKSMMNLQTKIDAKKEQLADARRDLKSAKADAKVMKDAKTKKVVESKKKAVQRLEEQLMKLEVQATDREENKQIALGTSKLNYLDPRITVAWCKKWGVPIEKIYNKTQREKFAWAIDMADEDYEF
experiment: Potency index, ratio of compound activity to CPT activity for inhibition of recombinant human topoisomerase 1 at 20 uM
For each entry below, report its Ratio value.
Numbers only.

Examples with answers:
O=c1[nH]c(-c2cccc3ccccc23)nc2ccc(N3CCCCC3)cc12 = 1.94
Cc1ccc2nc(-c3ccccc3F)[nH]c(=O)c2c1 = 2.11
Cc1ccc2nc(-c3ccccc3C(F)(F)F)[nH]c(=O)c2c1 = 0.65
Cc1ccc2c(=O)[nH]c(-c3ccccc3C)nc2c1 = 1.27
Cc1ccc2c(=O)[nH]c(-c3cccc4ccccc34)nc2c1 = 1.95

Proceeding to the next molecule to report its Ratio.
Data request, read-out Ratio, for Cc1ccc2c(=O)[nH]c(-c3ccccc3OC(F)(F)F)nc2c1
3.25

----------
Test system: T47D
experiment: Cytotoxicity against human T47D cells measured after 2 days by MTT assay
Type: functional, cell-based
test.conditions: 48 h
What pIC50 was measured for each of the following?
One number for each entry, as −log10 of the molar value.

Field: example entries. Status: answers known.
Cc1ccc2nc(-c3ccccc3N(C)C)[nH]c(=O)c2c1 = 4.57
CCN(CC)c1ccc2nc(-c3cccc4ccccc34)[nH]c(=O)c2c1 = 5.57
Cc1ccc2c(=O)[nH]c(-c3ccccc3N(C)C)nc2c1 = 5.35

Now for another entry.
Value wanted: pIC50 (T47D) of entry COc1cc([C@@H]2c3cc4c(cc3[C@@H](O[C@@H]3O[C@@H]5CO[C@@H](C)O[C@H]5[C@H](O)[C@H]3O)[C@H]3COC(=O)[C@H]23)OCO4)cc(OC)c1O [ETOPOSIDE]
5.03

----------
target.or.system: DNA topoisomerase 2-alpha (Homo sapiens)
experiment: Inhibition of recombinant human topoisomerase 2alpha assessed as relaxation of supercoiled plasmid DNA pBR322 at 100 uM incubated for 30 mins by agarose gel electrophoresis
Assignment: determine reported inhibition for the given compounds.
One number for each entry, in %.

Past entries and their recorded results:
Cc1ccc2c(=O)[nH]c(-c3ccccc3C)nc2c1 = 61.4
CN(C)c1ccc2nc(-c3cccc4ccccc34)[nH]c(=O)c2c1 = 0
Cc1ccc2c(=O)[nH]c(-c3cccc4ccccc34)nc2c1 = 0
Cc1ccc2c(=O)[nH]c(-c3cccc(F)c3)nc2c1 = 9.6
Cc1ccc2c(=O)[nH]c(-c3ccccc3N(C)C)nc2c1 = 28.1

Next, consider the following compound.
Lookup: inhibition / DNA topoisomerase 2-alpha (Homo sapiens) / Cc1ccc2nc(-c3cccc(F)c3)[nH]c(=O)c2c1
0
